Below, each of the binders is paired with its reported Mean No of serum samples >30% inhibition (30% CCP) with SCP (serum samples) value.
molecular target: pre-existing anti-drug antibodies (ADA) present in human sera; assay: pre-existing ADA ELISA, scFv coated, human sera unspiked vs spiked
Just the number, please, no unit after it.

[[record]]
binder = "PRO3320 (scFv 54-21-H03-sc01_(L12A, T101S, L144K, T146Q)) (scFv, PRO1922 variant; VH substitutions, AHo numbering; also called PRO1922 L12A-T101S-L144K-T146Q) scFv: DIQMTQSPSSLSASVGDRVTITCQASESIYSSLAWYQQKPGKAPKLLIYLASTLASGVPSRFSGSGSGTDFTLTISSLQPEDFATYYCQSTDYTTSTHRNSFGTGTKVTVLGGGGGSGGGGSGGGGSGGGGSEVQLVESGGGAVQPGGSLRLSCAASGFSFSTTYYMCWVRQAPGKGLEWIGCTNTASSVRTYYATWAKGRFTISRDNSKNTVYLQMNSLRAEDSAVYYCARDMGFADYALNLWGQGTKVQVSS"
measured = 0

[[record]]
binder = "PRO3312 (scFv 37-20-B03-sc09.1_(T101R, T146Q)) (scFv, PRO2230 variant; VH substitutions, AHo numbering; also called PRO2230 T101R-T146Q) scFv: DIQMTQSPASLSASVGDRVTITCQASQSIGTYLAWYQQKPGKPPKLLIYRAFILASGVPSRFSGSGSGTDFTLTISSLQPEDFATYYCQSNFYSDSTTIGPNAFGTGTKVTVLGGGGGSGGGGSGGGGSGGGGSEVQLVESGGGLVQPGGSLRLSCAASGFSFNSDYWIYWVRQAPGKGLEWIASIYGGSSGNTQYASWAQGRFTISRDNSKNTVYLQMNSLRAEDRAVYFCARGYVDYGGATDLWGQGTLVQVSS"
measured = 1

[[record]]
binder = "PRO2951 (scFv 37-20-B03-sc09.1_(T101R)) (scFv, PRO2230 variant; VH substitution, AHo numbering; also called PRO2230 T101R) scFv: DIQMTQSPASLSASVGDRVTITCQASQSIGTYLAWYQQKPGKPPKLLIYRAFILASGVPSRFSGSGSGTDFTLTISSLQPEDFATYYCQSNFYSDSTTIGPNAFGTGTKVTVLGGGGGSGGGGSGGGGSGGGGSEVQLVESGGGLVQPGGSLRLSCAASGFSFNSDYWIYWVRQAPGKGLEWIASIYGGSSGNTQYASWAQGRFTISRDNSKNTVYLQMNSLRAEDRAVYFCARGYVDYGGATDLWGQGTLVTVSS"
measured = 1

[[record]]
binder = "PRO3329 (scFv 54-21-H03-sc01_(T101Q)) (scFv, PRO1922 variant; VH substitution, AHo numbering; also called PRO1922 T101Q) scFv: DIQMTQSPSSLSASVGDRVTITCQASESIYSSLAWYQQKPGKAPKLLIYLASTLASGVPSRFSGSGSGTDFTLTISSLQPEDFATYYCQSTDYTTSTHRNSFGTGTKVTVLGGGGGSGGGGSGGGGSGGGGSEVQLVESGGGLVQPGGSLRLSCAASGFSFSTTYYMCWVRQAPGKGLEWIGCTNTASSVRTYYATWAKGRFTISRDNSKNTVYLQMNSLRAEDQAVYYCARDMGFADYALNLWGQGTLVTVSS"
measured = 1


// next item, Mean No of serum samples >30% inhibition (30% CCP) with SCP (serum samples) requested
[in] Note Mean No of serum samples >30% inhibition (30% CCP) with SCP (serum samples) for the binder shown: PRO2930 (scFv 54-21-H03-sc01_(L144K, T146E, S148K)) (scFv, PRO1922 variant; VH substitutions, AHo numbering; also called PRO1922 L144K-T146E-S148K) scFv: DIQMTQSPSSLSASVGDRVTITCQASESIYSSLAWYQQKPGKAPKLLIYLASTLASGVPSRFSGSGSGTDFTLTISSLQPEDFATYYCQSTDYTTSTHRNSFGTGTKVTVLGGGGGSGGGGSGGGGSGGGGSEVQLVESGGGLVQPGGSLRLSCAASGFSFSTTYYMCWVRQAPGKGLEWIGCTNTASSVRTYYATWAKGRFTISRDNSKNTVYLQMNSLRAEDTAVYYCARDMGFADYALNLWGQGTKVEVKS
[out] 0
